Examples of compounds with documented CC50 follow.
# ASSAY_INFO: in vitro
# CONDITION_DETAILS: human

Solved cases (5 shown):
{"columns": ["COMPOUND", "RESULT_TYPE", "RESULT_VALUE"],
 "data": [
  ["CC(C)c1ccc2c(c1)OC1(O)c3cccc(N)c3C(=O)C21NC(=O)c1cn2cccnc2n1 (stereo not drawn) [Example 285]", "CC50", "> 10 µg/mL"],
  ["CC(C)c1ccc2c(c1)O[C@@]1(O)c3cccc(N)c3C(=O)[C@@]21O [Example 46]", "CC50", "18.3 µg/mL"],
  ["CC(C)c1ccc2c(c1)OC1(O)c3ccccc3C(=O)C21NC(=O)[C@@H](C)NC(=O)OC(C)(C)C (stereo partly drawn) [Example 184]", "CC50", "> 10 µg/mL"],
  ["CC(C)c1ccc2c(c1)OC1(O)c3cccc(N)c3C(=O)C21NC(=O)c1cnccc1Cl (stereo not drawn) [Example 254]", "CC50", "> 10 µg/mL"],
  ["COc1cc(C(=O)NC23C(=O)c4c(N)cccc4C2(O)Oc2cc(C(C)C)ccc23)nc2ccccc12 (stereo not drawn) [Example 247]", "CC50", "> 10 µg/mL"]
]}

Name the reported CC50 value associated with the compound CC(C)c1ccc2c(c1)OC1(O)c3cccc(N)c3C(=O)C21NC(=O)c1cc2ccccc2s1 (stereo not drawn) [Example 235]
8.88 µg/mL

The values you see were collected from patent US9890133B2.
